Hey, just so you know, these numbers are from patent US20250346600A1.

- studyTarget: Full length WRN protein (aa 2-1432) (Homo sapiens (Human))
- protocolNotes: WRN ATPase ADP-Glo biochemical assay, Assay Format A (10 μM ATP)
- testContext: 0.25 nM WRN, 100 nM C6.18 ssDNA, 30 min preincubation, read-out: ATPase ADPGlo AC50 (uM)- Assay Format A
observationType: AC50

molecule	result
C=CC(=O)N1CCc2nn(-c3ccc(C(C)C)cc3)c3c2C(C1)N(C(=O)c1ccc(Br)c2[nH]cnc12)CC3 (stereo not shown)	< 0.0015 µM
C=CC(=O)N1CCc2nn(Cc3ccccc3)c3c2C(C1)N(C(=O)c1cnc(C(F)(F)F)cc1N)CC3 (stereo not shown)	> 0.055 µM
C=CC(=O)N1CCc2nn(-c3ccc(C4CCC4)cc3O)c3c2C(C1)N(C(=O)c1ccc(OC(F)(F)F)nc1)CC3 (stereo not shown)	< 0.0015 µM
C=CC(=O)N1CCc2nn(-c3ccc(C4CCC4)cc3O)c3c2C(C1)N(C(=O)c1cnc2c(C)nn(C)c2c1)CC3 (stereo not shown)	< 0.0015 µM
C=CC(=O)N1CCc2nn(-c3ccc(C(C)C)cc3)c3c2C(C1)N(C(=O)C1CC1)CC3 (stereo not shown)	> 0.055 µM
C=CC(=O)N1CCc2nn(-c3ccc(C4CC4)cc3)c3c2C(C1)N(C(=O)c1ccc(C#N)c2[nH]cnc12)CC3 (stereo not shown)	0.0015 to 0.005 µM
C=CC(=O)N1CCc2nn(-c3ccc(C4CCC4)cc3O)c3c2C(C1)N(C(=O)c1cc(O)c2scnc2c1)CC3 (stereo not shown)	< 0.0015 µM

* * *

Reported AC50 values for the following molecules.
- studyTarget: Full length WRN protein (aa 2-1432) (Homo sapiens (Human))
- protocolNotes: WRN ATPase ADP-Glo biochemical assay, Assay Format B (100 μM ATP)
- testContext: 0.25 nM WRN, 100 nM C6.18 ssDNA, 60 min preincubation, read-out: ATPase ADPGlo AC50 (uM)- Assay Format B

molecule	AC50
C=CC(=O)N1CC(OCc2cccnc2)c2nn(-c3ccc(C4CC4)cc3)c3c2C(C1)N(C(=O)c1cnc(C(F)(F)F)cc1N)CC3 (stereo not drawn)	0.005 to 0.015 µM
C=CC(=O)N1CCc2nn(-c3ccc(C4CCC4)cc3O)c3c2C(C1)N(C(=O)c1ccc(Br)c2[nH]ncc12)CC3 (stereo not drawn)	0.0015 to 0.005 µM
C=CC(=O)N1CCc2nn(-c3ccc(C4CC4)cc3)c3c2C(C1)N(C(=O)c1c(N)nc(C(F)(F)F)c(F)c1N)CC3 (stereo not drawn)	0.0015 to 0.005 µM

* * *

Reported AC50 values for the following molecules.
- studyTarget: Full length WRN protein (aa 2-1432) (Homo sapiens (Human), UniProt Q14191)
- Sequence (Q14191 2-1432): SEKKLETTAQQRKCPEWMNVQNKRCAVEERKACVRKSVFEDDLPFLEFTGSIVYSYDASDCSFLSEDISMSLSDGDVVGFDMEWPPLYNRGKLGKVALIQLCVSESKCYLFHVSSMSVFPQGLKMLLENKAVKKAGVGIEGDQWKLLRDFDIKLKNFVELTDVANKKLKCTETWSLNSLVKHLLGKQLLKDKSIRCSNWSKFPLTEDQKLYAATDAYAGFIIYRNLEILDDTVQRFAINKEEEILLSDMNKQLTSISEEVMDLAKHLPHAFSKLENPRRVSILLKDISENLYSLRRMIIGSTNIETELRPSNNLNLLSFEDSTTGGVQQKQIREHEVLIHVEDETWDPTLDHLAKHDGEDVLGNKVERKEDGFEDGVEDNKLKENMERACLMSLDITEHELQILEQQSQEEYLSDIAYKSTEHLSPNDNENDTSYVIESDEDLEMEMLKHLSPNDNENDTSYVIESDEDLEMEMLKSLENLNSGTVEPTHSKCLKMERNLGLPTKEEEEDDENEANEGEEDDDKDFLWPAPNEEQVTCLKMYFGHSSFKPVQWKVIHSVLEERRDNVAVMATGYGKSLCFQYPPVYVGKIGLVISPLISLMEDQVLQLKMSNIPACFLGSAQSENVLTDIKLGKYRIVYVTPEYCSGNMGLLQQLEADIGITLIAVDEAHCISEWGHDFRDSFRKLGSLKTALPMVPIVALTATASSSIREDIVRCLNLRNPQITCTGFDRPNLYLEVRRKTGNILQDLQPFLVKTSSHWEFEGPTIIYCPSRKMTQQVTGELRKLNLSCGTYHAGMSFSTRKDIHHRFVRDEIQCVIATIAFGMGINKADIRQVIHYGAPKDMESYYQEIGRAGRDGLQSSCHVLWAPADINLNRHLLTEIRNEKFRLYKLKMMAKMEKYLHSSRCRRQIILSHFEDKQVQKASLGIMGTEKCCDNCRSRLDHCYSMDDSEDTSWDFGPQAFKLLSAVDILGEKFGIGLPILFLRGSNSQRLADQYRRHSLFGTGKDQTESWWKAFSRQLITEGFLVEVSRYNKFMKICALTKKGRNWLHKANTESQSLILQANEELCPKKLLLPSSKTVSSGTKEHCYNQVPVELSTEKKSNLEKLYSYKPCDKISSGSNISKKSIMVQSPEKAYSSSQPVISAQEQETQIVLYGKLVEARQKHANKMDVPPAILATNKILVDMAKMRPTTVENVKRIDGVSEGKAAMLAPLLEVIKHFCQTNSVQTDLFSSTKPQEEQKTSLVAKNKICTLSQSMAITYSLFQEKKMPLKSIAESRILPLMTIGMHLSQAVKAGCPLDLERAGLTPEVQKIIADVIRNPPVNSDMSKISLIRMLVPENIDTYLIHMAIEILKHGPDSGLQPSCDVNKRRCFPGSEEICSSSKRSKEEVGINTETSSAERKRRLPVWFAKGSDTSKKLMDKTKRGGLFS
- protocolNotes: WRN ATPase ADP-Glo biochemical assay, Assay Format A (10 μM ATP)
- testContext: 0.25 nM WRN, 100 nM C6.18 ssDNA, 30 min preincubation, read-out: ATPase ADPGlo AC50 (uM)- Assay Format A

molecule	studyTarget	AC50
C=CC(=O)N1CCc2nn(-c3ccc(C(C)C)cc3O)c3c2C(C1)N(C(=O)c1ccc(Br)c2[nH]c(C(F)F)nc12)CC3 (stereo not shown) [Compound 174]	Full length WRN protein (aa 2-1432) (Homo sapiens (Human), UniProt Q14191)	< 0.0015 µM
C=CC(=O)N1CCc2nn(-c3ccc(C(C)C)cc3)c3c2C(C1)N(C(=O)c1ccc(Br)c(-c2cc[nH]n2)c1)CC3 (stereo not shown) [Compound 106]	Full length WRN protein (aa 2-1432) (Homo sapiens (Human), UniProt Q14191)	0.0015 to 0.005 µM
C=CC(=O)N1CCc2nn(-c3ccc(C4CC4)cc3)c3c2C(C1)N(C(=O)c1ccc(Br)nn1)CC3 (stereo not shown) [Compound 108]	Full length WRN protein (aa 2-1432) (Homo sapiens (Human), UniProt Q14191)	0.005 to 0.015 µM
C=CC(=O)N1CCc2nn(-c3ccc(C4CC4)cc3)c3c2C(C1)N(C(=O)c1ccc(-n2cccn2)nc1)CC3 (stereo not shown) [Compound 98]	Full length WRN protein (aa 2-1432) (Homo sapiens (Human), UniProt Q14191)	0.015 to 0.055 µM
C=CC(=O)N1CCc2nn(-c3ccc(C45CC(C4)C5)cc3O)c3c2C(C1)N(C(=O)c1cnc(C(F)(F)F)c(O)c1)CC3 (stereo not shown) [Compound 92]	Full length WRN protein (aa 2-1432) (Homo sapiens (Human), UniProt Q14191)	< 0.0015 µM
C=CC(=O)N1CCc2nn(-c3ccc(C4CC4)cc3O)c3c2C(C1)N(C(=O)c1cnc(C(F)(F)F)cc1N)CC3 (stereo not shown) [Compound 163]	Full length WRN protein (aa 2-1432) (Homo sapiens (Human), UniProt Q14191)	< 0.0015 µM
C=CC(=O)N1CCc2nn(-c3ccc(C4CC4)cc3OC(F)F)c3c2C(C1)N(C(=O)c1cnc(C(F)(F)F)cc1N)CC3 (stereo not shown) [Compound 252]	Full length WRN protein (aa 2-1432) (Homo sapiens (Human), UniProt Q14191)	0.0015 to 0.005 µM
C=CC(=O)N1CCc2nn(-c3ccc(C4CCC4)cc3O)c3c2C(C1)N(C(=O)c1cnc(C(F)(F)F)c(F)c1N)CC3 (stereo not shown) [Compound 134]	Full length WRN protein (aa 2-1432) (Homo sapiens (Human), UniProt Q14191)	< 0.0015 µM
C=CC(=O)N1CCc2nn(-c3ccc(C4CCC4)cc3O)c3c2C(C1)N(C(=O)c1ccc(C(C)(F)F)nc1N)CC3 (stereo not shown) [Compound 155]	Full length WRN protein (aa 2-1432) (Homo sapiens (Human), UniProt Q14191)	< 0.0015 µM
C=CC(=O)N1CCc2nn(-c3ccc(C4CCC4)cc3O)c3c2C(C1)N(C(=O)c1ccc(Br)c2[nH]c(CO)nc12)CC3 (stereo not shown) [Compound 75]	Full length WRN protein (aa 2-1432) (Homo sapiens (Human), UniProt Q14191)	< 0.0015 µM
C=CC(=O)N1CC(O)c2nn(-c3ccc(C4CCC4)cc3)c3c2C(C1)N(C(=O)c1ccc(Br)c2[nH]c(C(F)F)nc12)CC3 (stereo not shown) [Compound 160]	Full length WRN protein (aa 2-1432) (Homo sapiens (Human), UniProt Q14191)	< 0.0015 µM
C=CC(=O)N1CCOc2nn(-c3ccc(C45CC(C4)C5)cc3)c3c2C(C1)N(C(=O)c1ccc(Br)c2[nH]cnc12)CC3 (stereo not shown) [Compound 43]	Full length WRN protein (aa 2-1432) (Homo sapiens (Human), UniProt Q14191)	< 0.0015 µM
C=CC(=O)N1CCc2nn(-c3ccc(C4CC4)cc3)c3c2C(C1)N(C(=O)C12CC(C(F)(F)F)(C1)C2)CC3 (stereo not shown) [Compound 121]	Full length WRN protein (aa 2-1432) (Homo sapiens (Human), UniProt Q14191)	0.015 to 0.055 µM
